Reference source: patent US12037324B2

- Study target: hAT1R (Homo sapiens)
- Assay: cell-based
- Condition info: section of the 42nd table ending at r951, example numbering restarts after the DiscoveRx section; read-out: β-arrestin2 EC50
pEC50: −log10 of the molar value.
Output Yes for pEC50 not less than 7; output No otherwise.

Before answering, review these 4 worked examples.
[[record]]
compound = "CCc1nc2c(C)cc(C)nc2n1Cc1ccc(-c2cc(Oc3ccccn3)ccc2-c2nnn[nH]2)cc1 [Example 247]"
assigned_class = "Yes"

[[record]]
compound = "CCOc1nc2cccc(C(=O)O)c2n1Cc1ccc(-c2cc(-c3ccccc3)ccc2-c2noc(=O)[nH]2)cc1 [Example 311]"
assigned_class = "Yes"

[[record]]
compound = "CCCC1=NC2(CCOC2)C(=O)N1Cc1ccc(-c2cc(-c3ccccc3)ccc2-c2nnn[nH]2)cc1 (single isomer, unassigned) [Example 162]"
assigned_class = "No"

[[record]]
compound = "CCc1nc2c(C)cc(C)nc2n1Cc1cnc(-c2cc(-c3ccccc3)ccc2-c2nnn[nH]2)cn1 [Example 187]"
assigned_class = "No"


Textbook exercise: given the entry Cc1cnn(-c2ccc(-c3nn[nH]n3)c(-c3ccc(Cn4nc(C)nc4C)cc3)c2)c1 [Example 457] , state whether its pEC50 is greater than or equal to 7.
No

Item CCc1nc2c(C)cc(C)nc2n1Cc1ncc(-c2cc(-c3cccc(C)c3)ccc2-c2nnn[nH]2)cn1 [Example 188] with pEC50 of 7 or above?
Yes

Determine whether this compound has pEC50 no lower than 7: CCc1nc2c(C)cc(C)nc2n1Cc1ccc(-c2cc(-c3ccc(CO)cc3)ccc2-c2nnn[nH]2)cn1 [Example 180]
No

Answer whether pEC50 of CCc1nc2c(C)cc(C)nc2n1Cc1ccc(-c2cc(Oc3cc(C)ccn3)ccc2-c2nn[nH]n2)cc1 [Example 250] is greater than or equal to 7.
Yes

Is reported pEC50 greater than or equal to 7 here: CCc1nc2c(C)cc(C)nc2n1Cc1ccc(-c2cc(Oc3cccnc3)ccc2-c2nnn[nH]2)cc1 [Example 257]
Yes

Please check the record CCc1nc2c(C)cc(C)nc2n1Cc1ccc(-c2cc(OC3CCCCC3)ccc2-c2nnn[nH]2)cc1 [Example 209] and state if its pEC50 is at or above 7.
Yes

Reported pEC50 reaches at least 7 for CCc1nc2c(C)cc(C)nc2n1Cc1ccc(-c2cc(Oc3cccc(F)n3)ccc2-c2nn[nH]n2)cc1 [Example 256] ?
Yes

Dear colleague, could you confirm whether CCc1nc2c(C)cc(C)nc2n1Cc1ccc(-c2cc(-c3ccccc3)ccc2-c2nsc(=O)[nH]2)cc1 [Example 245] has pEC50 at or above 7?
Yes

Is reported pEC50 greater than or equal to 7 here: CCCCC(=O)N(Cc1ccc(-c2cc(-c3cc(C)ccn3)ccc2-c2nn[nH]n2)cc1)C1(C(=O)O)CCCCC1 [Example 295]
Yes

====

The molecules listed here are annotated with their BRET β-Arrestin2 High AT1R Expression Ymax (%).
- Study target: hAT1R (Homo sapiens, UniProt P30556)
- Sequence (P30556 whole entry): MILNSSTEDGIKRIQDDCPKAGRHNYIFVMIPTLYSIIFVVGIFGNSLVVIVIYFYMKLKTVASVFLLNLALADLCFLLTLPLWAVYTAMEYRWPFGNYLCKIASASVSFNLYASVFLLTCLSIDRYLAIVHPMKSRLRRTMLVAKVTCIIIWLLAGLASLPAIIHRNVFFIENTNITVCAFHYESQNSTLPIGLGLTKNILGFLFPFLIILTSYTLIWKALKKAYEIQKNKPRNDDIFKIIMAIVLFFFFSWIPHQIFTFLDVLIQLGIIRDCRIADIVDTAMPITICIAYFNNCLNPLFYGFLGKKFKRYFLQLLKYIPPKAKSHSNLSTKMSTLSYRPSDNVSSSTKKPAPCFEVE
- Assay: BRET β-arrestin2 biosensor assay, higher receptor expression (hAT1R 5 ng/well), HEK293 cells
- Type: cell-based
Answer format: numeric, % implied, no suffix.

[[record]]
structure_notation = "CCCCOC(=O)NS(=O)(=O)c1sc(-c2ccccc2)cc1-c1ccc(Cn2c(CC)nc3c(C)cc(C)nc32)cc1"
study_target = "hAT1R (Homo sapiens, UniProt P30556)"
test_result = 78.3

[[record]]
structure_notation = "CCCCC1=NC2(CCCC2)C(=O)N1Cc1ccc(-c2cc(-c3ccccc3)ccc2C(=O)O)cc1"
study_target = "hAT1R (Homo sapiens, UniProt P30556)"
test_result = 81.5

[[record]]
structure_notation = "CCCCC1=NC2(CCCC2)C(=O)N1Cc1ccc(-c2cc(-n3ccc4ccc(F)cc43)ccc2-c2nn[nH]n2)cc1"
study_target = "hAT1R (Homo sapiens, UniProt P30556)"
test_result = 59.9


// below: BRET β-Arrestin2 High AT1R Expression Ymax (%) requested for another molecule
The observed BRET β-Arrestin2 High AT1R Expression Ymax (%) for CCCCc1ncc(C(=O)N(C)C)n1Cc1ccc(-c2cc(-c3ccccc3)ccc2-c2nn[nH]n2)cc1 when tested with hAT1R (Homo sapiens, UniProt P30556) stands at 66.3

====

- Study target: hAT1R (Homo sapiens)
- Assay: BRET β-arrestin2 biosensor assay, higher receptor expression (hAT1R 5 ng/well), HEK293 cells
- Format: cell-based
Quick reference: BRET β-Arrestin2 High AT1R Expression Ymax (%) of the listed items.
Give just the number in %; leave the unit off.

Use the examples below as a reference point.
[[record]]
structure_notation = "CCCCC(=O)N(Cc1ccc(-c2cc(-c3ccccc3)ccc2-c2nn[nH]n2)cc1)C1(C(=O)O)CCN(c2ccccc2)CC1"
study_target = "hAT1R (Homo sapiens)"
test_result = 68.8

[[record]]
structure_notation = "CCCCC1=NC2(CCCC2)C(=O)N1Cc1ccc(-c2cc(-c3cncc(C)c3)ccc2-c2nn[nH]n2)cc1"
study_target = "hAT1R (Homo sapiens)"
test_result = 40.7

[[record]]
structure_notation = "CCc1nc2c(C)cc(C)nc2n1Cc1ccc(-c2cc(Oc3ccccc3)cc(C)c2-c2nnn[nH]2)cc1"
study_target = "hAT1R (Homo sapiens)"
test_result = 80.2

[[record]]
structure_notation = "CCCCC1=NC2(CCCC2)C(=O)N1Cc1ccc(-c2cc(-c3ccc(C)cc3)ccc2-c2nn[nH]n2)cc1"
study_target = "hAT1R (Homo sapiens)"
test_result = 94.3


The measured BRET β-Arrestin2 High AT1R Expression Ymax (%) associated with CCc1nc2c(C)cc(C)nc2n1Cc1ccc(-c2cc(-c3ccc(OC(F)(F)F)cc3)ccc2-c2nn[nH]n2)cc1 reads 73.5

Value of measured BRET β-Arrestin2 High AT1R Expression Ymax (%) for the entry CCc1nc2c(C)cc(C)nc2n1Cc1ccc(-c2cc(-c3cn(CC4CC4)nn3)ccc2-c2nnn[nH]2)cc1 : 84.4

GET /value?item= CCCCc1nc(Cl)c(C(=O)O)n1Cc1ccc(-c2cc(C3CCCCC3)ccc2-c2nn[nH]n2)cc1 &field=BRET β-Arrestin2 High AT1R Expression Ymax (%) returns 76.7

Briefly, BRET β-Arrestin2 High AT1R Expression Ymax (%) measured for CCc1nc2c(C)cc(C)nc2n1Cc1ccc(-c2cc(-c3cccnc3)ccc2-c2nn[nH]n2)cc1 : 23.4

====

- Study target: hAT1R (Homo sapiens, UniProt P30556)
- Assay: BRET Gq biosensor assay, agonist response, HEK293 cells
- Format: cell-based
- Condition info: section of the 42nd table directly before the BRET P63 section
// assign yes if EC50 falls strictly below 500 nM, else no (ties count as no)

Below, 4 molecules whose answers are already recorded.
[[record]]
molecule = "CCOc1nc2cccc(C(=O)O)c2n1Cc1ccc(-c2cc(-c3c[nH]c4ccccc34)ccc2-c2noc(=O)[nH]2)cc1 [Example 322]"
assigned_class = "yes"

[[record]]
molecule = "CCOc1nc2cccc(C(=O)O)c2n1Cc1ccc(-c2cc(-c3cc(C)ccn3)ccc2-c2noc(=O)[nH]2)cc1 [Example 299]"
assigned_class = "yes"

[[record]]
molecule = "CCOc1nc2cccc(C(=O)OC)c2n1Cc1ccc(-c2cc(-c3ccccc3)ccc2-c2noc(=O)[nH]2)cc1 [Example 316]"
assigned_class = "no"

[[record]]
molecule = "CCCCc1nc(Cl)c(C(=O)O)n1Cc1ccc(-c2cc(-c3cccc(C(F)F)n3)ccc2-c2nn[nH]n2)cc1 [Example 423]"
assigned_class = "yes"


A record lists CCCCc1nc(Cl)c(C(=O)O)n1Cc1ccc(-c2cc(-c3cncc(OC)c3)ccc2-c2nn[nH]n2)cc1 [Example 385] . Is its EC50 below 500 nM?
no

# check: EC50 < 500 nM for CCCCC(=O)N(Cc1ccc(-c2cc(-c3cc(F)cc(F)c3)ccc2-c2nn[nH]n2)cc1)C1(C(=O)O)CCCCC1 [Example 289]
no

Given CCCCc1nc(Cl)c(C(=O)O)n1Cc1ccc(-c2cc(C3CCCCC3)ccc2-c2nn[nH]n2)cc1 [Example 424] , is recorded EC50 strictly lower than 500 nM?
no

Find out if reported EC50 for CCCCC(=O)N(Cc1ccc(-c2cc(N3CC(C)(C)c4ccccc43)ccc2-c2nn[nH]n2)cc1)[C@H](C(=O)O)C(C)C [Example 450] is less than 500 nM
no

Input CCCCC(=O)N(Cc1ccc(-c2cc(N3CCC(C)CC3)ccc2-c2nn[nH]n2)cc1)[C@H](C(=O)O)C(C)C [Example 447] ; condition: EC50 strictly below 500 nM. Does it hold?
no

Strictly below 500 nM in EC50? CCCCc1nc(Cl)c(C(=O)O)n1Cc1ccc(-c2cc(-c3cccc4[nH]ccc34)ccc2-c2nn[nH]n2)cc1 [Example 392]
no

Hi there! Is EC50 for CCCCC(=O)N(Cc1ccc(-c2cc(-c3ccccc3)ccc2-c2nn[nH]n2)cc1)C1(C(=O)O)CCCC1 [Example 271] below 500 nM, do you know?
no

Is 500 nM strictly greater than the molecule's reported EC50? molecule: CCOc1nc2cccc(C(=O)O)c2n1Cc1ccc(-c2cc(-c3cccnc3OC)ccc2C(=O)O)cc1 [Example 318]
no

Criterion: EC50 strictly below 500 nM. Is it met by CCCCc1nc(Cl)c(C(=O)N(C)C)n1Cc1ccc(-c2cc(-c3ccccc3)ccc2-c2nn[nH]n2)cc1 [Example 381] ?
no

Please check: EC50 for CCCCc1ncc(C(=O)NCc2nccs2)n1Cc1ccc(-c2cc(-c3ccccc3)ccc2-c2nn[nH]n2)cc1 [Example 356] , strictly under 500 nM or not?
yes
